- Species: Rattus norvegicus
- run-description: DrugMatrix - Regimen: Daily Repeat
- Format: toxicity, organism-based, Sprague-Dawley
- Parameters: regimen Daily Repeat, gender Male, age 6-8 weeks
- details: in vivo, po, 10 mg/kg, 120 h, tissue Blood, route oral GAVAGE, dose level Low, time 5 day, […]
experimental-readout: HEMATOCRIT (%)

molecule	experimental-readout	measured-result
COCCOC(=O)C1=C(C)NC(C)=C(C(=O)OC(C)C)C1c1cccc([N+](=O)[O-])c1 (centres undefined)	HEMATOCRIT	36.23
COc1ccc2cc([C@H](C)C(=O)O)ccc2c1	HEMATOCRIT	34.4
CCOC(=O)C1=C(C)NC(C)=C(C(=O)OC)C1c1cccc([N+](=O)[O-])c1 (centres undefined)	HEMATOCRIT	32.77
CC(C)CC(N(C)C)C1(c2ccc(Cl)cc2)CCC1 (centres undefined)	HEMATOCRIT	33.73

Entry source: ChEMBL document CHEMBL3885881
